Values compiled from the supplement of paper PMC13380429.

# Test system: HepG2
# Assay method text: cell viability relative to DMSO; higher = less toxic
# Cond: 72 h; 10000 nM
Please go through the items and note down their cell viability.
Answers are plain numbers, in %.

> print(dat)
                                   compound    tgt  quantitative.readout
1  CO[C@@H](C)Cn1c(=O)n(C)c2cnc3ccc(-c4cncc(C(C)(C)O)c4)cc3c21  HepG2                  14.8

Could I get cell viability for every one of these entries?
1. CNCC[C@@H](Oc1ccccc1C)c1ccccc1 [atomoxetine]
2. CN1[C@@H]2CC[C@H]1C[C@@H](OC(=O)c1cc(Cl)cc(Cl)c1)C2 [bemesetron]
3. N#Cc1ccc(Oc2ccc3c(c2)COB3O)cc1 [crisaborole]
4. CCN(c1cc(C#CCN2CCOCC2)cc(C(=O)NCc2c(C)cc(C)[nH]c2=O)c1C)[C@H]1CC[C@H](N(C)CCOC)CC1
5. C=C1CCN([C@H](C)[C@](O)(Cn2cncn2)c2ccc(F)cc2F)CC1 [efinaconazole]
6. COc1ccc(CC2NCCc3cc(OC)c(OC)cc32)cc1OC (centres undefined) [tetrahydropapaverine]
7. C[C@]12Cc3c[nH]nc3C[C@@H]1CC[C@@H]1[C@@H]2CC[C@@]2(C)[C@H]1CC[C@]2(C)O [stanozolol]

Outgoing:
93.5
106
95.8
91.2
91.5
103
94.1

Entry O=C(Nc1ccc(OC(F)(F)F)cc1)c1sccc1NCc1ccnc2ccccc12 [OSI-930] under HepG2 had cell viability of 67

###

# System: Caco-2
# Assay method text: cell viability relative to DMSO; higher = less toxic
# Cond: 72 h; 1000 nM
For each of the compounds below, state its cell viability.
Numbers only, in %.

Here are 6 compounds together with their reported answers.
Compound	Tgt	cell viability (%)
S=C(S)OC1CC2CC1C1CCCC21 (stereo not given) [D609]	Caco-2	105
Cc1cc(SCc2sc(-c3ccc(C(F)(F)F)c(F)c3)nc2C)ccc1OCC(=O)O [GW-0742]	Caco-2	106
CN(C)C(=N)NCCC[C@H](N)C(=O)O [asymmetrical-dimethylarginine]	Caco-2	93.3
CC(C)c1ccc(-c2cc(=O)c3ccccc3o2)cc1 [MN-64]	Caco-2	84.9
CCN(CC)CCNc1ccc(CO)c2sc3ccccc3c(=O)c12 [hycanthone]	Caco-2	104
C=C(NC(=O)C(=C)NC(=O)c1csc(C2=N[C@@H]3c4csc(n4)[C@H]4NC(=O)c5csc(n5)[C@H]([C@](C)(O)[C@@H](C)O)NC(=O)[C@H]5CSC(=N5)/C(=C/C)NC(=O)[C@H]([C@@H](C)O)NC(=O)c5csc(n5)[C@]3(CC2)NC(=O)[C@H](C)NC(=O)C(=C)NC(=O)[C@H](C)NC(=O)[C@H]([C@@H](C)CC)N[C@@H]2C=Cc3c([C@H](C)O)cc(nc3[C@H]2O)C(=O)O[C@@H]4C)n1)C(N)=O [thiostrepton]	Caco-2	82.9

Parameter requested: cell viability. Apply to each item below.
1. Nc1cc(C(F)(F)F)c(-c2nc(N3CCOCC3)nc(N3CCOCC3)n2)cn1 [PI3K-IN-2]
2. O=C(O)/C=C\c1c[nH]cn1 [cis-Urocanic acid]
3. CN1CCN(CCCN2c3ccccc3Sc3ccc(S(=O)(=O)N(C)C)cc32)CC1 [thioproperazine]
4. Cc1nc(Nc2ccc(F)cc2)nc(N2CCc3ccccc3C2C)c1C (stereo not given) [revaprazan]

Outgoing:
1: 63.3; 2: 91.5; 3: 113; 4: 97.6

###

Assignment: determine reported cell viability for the given compounds.
# Test system: U2OS
# Assay method text: cell viability relative to DMSO; higher = less toxic
# Cond: 72 h; 1 nM
Give bare numbers, in %.

> print(dat)
                                   compound  quantitative.readout
1   Cc1cccc(C(=O)O)c1O [hydroxytoluic-acid]                  96.8
2       Cc1cccc(/C=C/c2ccccc2)n1 [SIB-1893]                  99.8
3  O=C(O)c1cc(/N=N/c2ccc(S(=O)(=O)Nc3ccccn3)cc2)ccc1O [sulfasalazine]                  98.6
4  CC(C)(C)C(=O)OCOC(=O)[C@@H]1N2C(=O)C[C@H]2S(=O)(=O)C1(C)C [sulbactam-pivoxil]                  95.7
5  CNC(=O)[C@H](Cc1c[nH]c2ccccc12)NC(=O)[C@@H](CC(=O)NO)CC(C)C [ilomastat]                  97.6
6  N#Cc1ccc(-c2csc(NN=C3CCCC3)n2)cc1 [remodelin]                  98.3
7  O=C(O)c1cn(C2CC2)c2cc(N3CCNCC3)c(F)cc2c1=O [ciprofloxacin]                   100
8  [O-][S+](c1ccccc1)c1ccc2nnnn2n1 (centres undefined) [Ro-106-9920]                  99.9

The reported cell viability of the compound CN1C(=O)c2c(nn(Cc3ccc(-c4cccc(F)n4)cc3)c2Nc2ccccc2)N2C1=N[C@@H]1CCC[C@@H]12 [ITI214] was 106

###

# System: Vero E6
# Assay method text: cell viability relative to DMSO; higher = less toxic
# Cond: 72 h; 1000 nM
Property name: cell viability (%)
Numbers only, in %.

> print(dat)
                                   molecule      tgt  quantitative.readout
1            N#Cc1ccc(Oc2ccc3c(c2)COB3O)cc1  Vero E6                   102
2  Cc1cc(-c2ccc(/N=N/c3ccc4c(S(=O)(=O)O)cc(S(=O)(=O)O)c(N)c4c3O)c(C)c2)ccc1/N=N/c1ccc2c(S(=O)(=O)O)cc(S(=O)(=O)O)c(N)c2c1O  Vero E6                  91.6
3  C[C@@H](Oc1cc(-n2cnc3ccc(CN4CCN(C)CC4)cc32)sc1C(N)=O)c1ccccc1C(F)(F)F  Vero E6                  64.6
4  N=C(C[C@@H](O)COc1ccccc1-c1ccccc1)N1CCCCC1  Vero E6                  96.8
5  COc1cc(OC2CCN(C)CC2)ccc1Nc1ncc2c(n1)n(C1CCCC1)c(=O)n2C  Vero E6                  99.4
6  CC(C)(C)NCC(O)COc1cccc2[nH]c(=O)[nH]c12 (centres undefined)  Vero E6                   103

Report cell viability for every entry below.
1. CCCCOc1ccc(C(=O)Nc2ccc(F)cc2F)cc1
2. COC1CCN(c2cccc(-c3cc(NC(C)=O)nc(-n4nc(C)cc4C)n3)n2)CC1
3. CCOC(=O)n1ccn(C)c1=S

Outgoing:
99.7
104
93.7

###

# Test system: Calu-3
# Assay method text: cell viability relative to DMSO; higher = less toxic
# Cond: 72 h; 10000 nM
Provide the reported cell viability of each item.
Give bare numbers, in %.

Consider the following illustrative entries.
> print(dat)
                                   molecule  quantitative.readout
1              Cn1c(=O)c2c(ncn2CCO)n(C)c1=O                   102
2  Cc1cc(NC(=O)Nc2ccc(N(C)C)cc2)c2cc(F)cc(F)c2n1                  94.7
3  CC(C)(C(=O)O)c1ccc(C(=O)CCCN2CCC(OC(c3ccccc3)c3ccccc3)CC2)cc1                   102
4  COc1cc2c(cc1OC)[C@@]13CCN4CC5=CCO[C@H]6CC(=O)N2[C@H]1[C@H]6[C@H]5C[C@H]43                  97.1
5  CN1[C@@H]2CC[C@H]1C[C@@H](OC(=O)c1cc(Cl)cc(Cl)c1)C2                    95
6  O=S(=O)(c1ccccc1)c1cnc2c(N3CCNCC3)cccc2c1                  98.4
7  CC(C)(C)NCC(O)COc1cccc2[nH]c(=O)[nH]c12 (stereo not given)                   106
8                         NCCCNCCSP(=O)(O)O                    98

# batch: return cell viability for each of the 7 molecules below
1. COc1ccc(C[C@H]2NC[C@H](O)[C@H]2OC(C)=O)cc1
2. CCCC[C@@]1(C2CCCC2)Cc2cc(OCCCC(=O)O)c(Cl)c(Cl)c2C1=O
3. FC(F)(F)c1ccccc1-n1ccnc1
4. COc1ccc(CNC(=O)c2sc3nc(C)cc(C)c3c2N)cc1
5. CN(C)C(=O)N[C@H]1CC[C@H](CCN2CCN(c3cccc(Cl)c3Cl)CC2)CC1
6. CNC(=O)[C@H](Cc1c[nH]c2ccccc12)NC(=O)[C@@H](CC(=O)NO)CC(C)C
7. CCCS(=O)(=O)Nc1ccc(F)c(C(=O)c2c[nH]c3ncc(-c4ccc(Cl)cc4)cc23)c1F

Outgoing:
29.1
118
97.2
101
106
90.4
90.1

Hey, can you go through the list below and give me cell viability for every item?
1. CCNCCS(=O)(=O)NC[C@@]1(c2ccccc2)SC(NC(=O)C(C)(C)C)=NN1C(=O)C(C)(C)C
2. Cc1cccc(/C=C/c2ccccc2)n1
3. O=C(NCCO)c1cc(C(=O)NCCO)cc(C(=O)NCCO)c1
4. NCCc1ccc(O)c(O)c1
5. COc1cc(NS(=O)(=O)c2ccc(N)cc2)nc(OC)n1

Outgoing:
1: 81.2; 2: 102; 3: 91.9; 4: 109; 5: 94
